Item-by-item account of microsomal CLint
- Assay Text: Enzyme kinetics of hydrolysis
- Format: in vitro ADME, human
- Conditions Used: both, human, human liver microsomes, pH 7.4

- Smiles Text: "COC(=O)C1=CCCNC1"
  microsomal CLint, µL/min/mg: 1.02
- Smiles Text: "COC(=O)C1=CCCN(C)C1"
  microsomal CLint, µL/min/mg: 90.3

* * *

- Assay Text: Depletion of parent compound over 90 min in fresh or thermally-inactivated HLC
- Type: in vitro ADME, human
- Conditions Used: both, human, human liver cytosol, pH 7.4
Property Measured: half-life at 100 μM (h)

- Compound: "COC(=O)C1=CCCN(C)C1 [arecoline]"
  Observed Value: 1.66
